Property: phosphorylation enrichment; scope: individual sequences
Tgt: FGFR3 (UniProt P22607)
Sequence (P22607 whole entry, looked up): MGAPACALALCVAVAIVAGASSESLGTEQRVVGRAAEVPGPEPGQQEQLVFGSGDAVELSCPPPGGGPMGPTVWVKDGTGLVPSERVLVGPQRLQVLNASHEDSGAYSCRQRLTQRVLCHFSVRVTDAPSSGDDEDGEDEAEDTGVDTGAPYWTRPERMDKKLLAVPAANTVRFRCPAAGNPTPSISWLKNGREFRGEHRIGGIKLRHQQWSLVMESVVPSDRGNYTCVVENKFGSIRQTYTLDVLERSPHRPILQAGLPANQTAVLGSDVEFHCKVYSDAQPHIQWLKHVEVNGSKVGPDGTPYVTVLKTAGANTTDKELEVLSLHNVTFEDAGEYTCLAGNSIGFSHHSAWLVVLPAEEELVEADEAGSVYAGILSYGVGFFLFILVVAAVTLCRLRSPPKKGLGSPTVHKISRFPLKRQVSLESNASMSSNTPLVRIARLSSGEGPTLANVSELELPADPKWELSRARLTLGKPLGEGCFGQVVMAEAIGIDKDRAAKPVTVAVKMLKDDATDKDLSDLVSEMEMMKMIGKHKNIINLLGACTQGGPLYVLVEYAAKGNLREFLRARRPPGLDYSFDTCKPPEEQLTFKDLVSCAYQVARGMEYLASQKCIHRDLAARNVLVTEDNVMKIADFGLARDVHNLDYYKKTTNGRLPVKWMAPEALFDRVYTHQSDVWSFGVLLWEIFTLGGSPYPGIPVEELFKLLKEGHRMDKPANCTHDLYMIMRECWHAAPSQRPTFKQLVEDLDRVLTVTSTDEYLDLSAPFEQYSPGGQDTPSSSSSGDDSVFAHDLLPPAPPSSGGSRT
Test Details: phosphorylation enrichment, bacterial display (enrichment ratio); higher = better substrate or ligand; peptides without Tyr show the background;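 also: 11-residue human phosphosite peptides and single-mutation variants displayed on the E. coli surface, counted by deep sequencing, each peptide's frequency after selection divided by its frequency in the unselected input library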;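 also: frequency after pTyr selection over input frequency; kinase dosed for 20-30% of maximal phosphorylation in three min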
Number, no unit, nothing else.

Recorded phosphorylation enrichment, per entry:
TEALFYTDDTA [ADPRS_Y75_YF]	0.754
TGILLYGLASR [QARS1_Y57]	0.692

[ask] Please give measured phosphorylation enrichment of the following entry: IYRAAYFGVYD [SLC25A4_Y191]
[reply] 0.771

[ask] Input HKETGYVVERP [BCLAF1_Y466_L461H] , output reported phosphorylation enrichment.
[reply] 0.656

[ask] Report phosphorylation enrichment for KKMEVYQSIAD [MYBPC3_Y548_L545M]
[reply] 0.681

[ask] Identify the reported phosphorylation enrichment for the following entry. KVALLYKPFFF [POLE_Y100_P99L_YF]
[reply] 0.704

[ask] Query phosphorylation enrichment for PDNKPYIFKVF [PIK3AP1_Y553_E551K]
[reply] 0.831

[ask] Respond only with phosphorylation enrichment recorded for EKIANYKEGTY [CLRN1_Y171]
[reply] 0.449

[ask] State, in one line, measured phosphorylation enrichment of CPYNLYAAQLS [HGD_Y40_E42A]
[reply] 0.939

[ask] Return reported phosphorylation enrichment. Input sequence: QAYSWYQHQRA [NDST1_Y714_R709Q]
[reply] 0.883

[ask] Give me measured phosphorylation enrichment, please, for this sequence: NDFGNYSNQSS [HNRNPA1_Y318_N319S]
[reply] 0.49

[ask] Return value of phosphorylation enrichment for input TTPFNYSFIFK [RAB14_Y8_A4T_YF] , no commentary.
[reply] 0.793

[ask] Quickly give me recorded phosphorylation enrichment for GTQGSYLLSRK [UGT3A1_Y123_C121G]
[reply] 0.355

[ask] Retrieve phosphorylation enrichment measured for MSFDRYMAVCH [OR2A5_Y123_I126V_YF] and print it.
[reply] 0.738

[ask] Kindly indicate its recorded phosphorylation enrichment. Item: KIDAKYKKKIK [WDR19_Y1230_E1235K]
[reply] 0.834

[ask] Provide one value: measured phosphorylation enrichment of QSSALYEDRFL [ASS1_Y83_YF]
[reply] 1.01

[ask] Tell me phosphorylation enrichment reported for GIADDYDKKKP [EIF1_Y54_L59P]
[reply] 0.636

[ask] Supply phosphorylation enrichment value. Item: STDDGYIDLQF [TMEM230_Y29]
[reply] 1.01
